Source: the supplement of paper PMC9233669

Test system: biotinyl-Phe-oxazolone
ASSAY: self-aminoacylation, catalytic enhancement (BFO) (fold over background); higher = more active; k-Seq, kA / k0A0; sequences stand for … in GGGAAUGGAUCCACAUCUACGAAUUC…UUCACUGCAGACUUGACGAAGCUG
Fewer inactive variants are shown than the library holds.
EXPERIMENTAL ENDPOINT: self-aminoacylation

SEQUENCE | EXPERIMENTAL ENDPOINT | MEASURED VALUE
AAGUUCGCUAACAGUCGCAAG [Fam3.1 aminoacylation ribozyme variant] | self-aminoacylation | 2.24
AUUACCCUGGCCCUCGAGUGA [Fam2.1 aminoacylation ribozyme variant] | self-aminoacylation | 24.1
AUUACCGUGGUCAUCGAGUGU [Fam2.1 aminoacylation ribozyme variant] | self-aminoacylation | 12.9
UCACACUUCAAGCAAGCGGUC [Fam1B.1 aminoacylation ribozyme variant] | self-aminoacylation | 0.807
CUACUUCCAACAUUCGGUCUG [Fam1A.1 aminoacylation ribozyme variant] | self-aminoacylation | 1.68
CUACUUAAAACAAUAGGUCUG [Fam1A.1 aminoacylation ribozyme variant] | self-aminoacylation | 0.984
AUGUCUGCUAAUAGUCGCAAG [Fam3.1 aminoacylation ribozyme variant] | self-aminoacylation | 35.5
